As shown below, each of these compounds has a reported MIC value.
- System: E.coli 25922
- assay-notes: Antibacterial spectrum (MIC), agar dilution
- Type: cell-based
- condition-notes: Escherichia coli, read-out: MIC

Below, 5 compounds whose answers are already recorded.
>  <compound>
Nc1nc(/C(=N/O)C(=O)N[C@@H]2C(=O)N3C(C(=O)O)=C(/C=C4\CCN(CC5CC5)C4=O)CS[C@H]23)cs1 [N]

>  <MIC>
≤ 0.06 µg/mL

$$$$
>  <compound>
CON1CC/C(=C\C2=C(C(=O)O)N3C(=O)[C@@H](NC(=O)/C(=N\O)c4csc(N)n4)[C@H]3SC2)C1=O [G]

>  <MIC>
≤ 0.06 µg/mL

$$$$
>  <compound>
CC(C)(C)N1CC/C(=C\C2=C(C(=O)O)N3C(=O)[C@@H](NC(=O)/C(=N\O)c4csc(N)n4)[C@H]3SC2)C1=O [J]

>  <MIC>
0.5 µg/mL

$$$$
>  <compound>
C=CCN1CC/C(=C\C2=C(C(=O)O)N3C(=O)[C@@H](NC(=O)/C(=N\O)c4csc(N)n4)[C@H]3SC2)C1=O [L]

>  <MIC>
≤ 0.06 µg/mL

$$$$
>  <compound>
COc1ccc(N2CC/C(=C\C3=C(C(=O)O)N4C(=O)[C@@H](NC(=O)/C(=N\O)c5csc(N)n5)[C@H]4SC3)C2=O)cc1 [I]

>  <MIC>
0.12 µg/mL

$$$$

May I ask what MIC has been recorded for Nc1nc(/C(=N/O)C(=O)N[C@@H]2C(=O)N3C(C(=O)O)=C(/C=C4\CCN(C5CC5)C4=O)CS[C@H]23)cs1 [D] ?
≤ 0.06 µg/mL

May I ask what MIC has been recorded for C=CC1=C(C(=O)O)N2C(=O)[C@@H](NC(=O)/C(=N\O)c3csc(N)n3)[C@H]2SC1 [Cefdinir, reference compound] ?
0.25 µg/mL

May I ask what MIC has been recorded for C#CCN1CC/C(=C\C2=C(C(=O)O)N3C(=O)[C@@H](NC(=O)/C(=N\O)c4csc(N)n4)[C@H]3SC2)C1=O [O] ?
≤ 0.06 µg/mL

* * *

- Tested on: E.faecalis
- assay-notes: In vitro activity against selected species (MIC50, MIC90, range)
- Assay type: cell-based
- condition-notes: Enterococcus faecalis, medium MHA
- Experimental: In vitro activity was determined by minimum inhibitory concentration in a microorganism spectum by the agar dilution method in Mueller Hinton agar.
As shown below, each of these compounds has a reported MIC50 value.

Below, 4 compounds whose answers are already recorded.
>  <compound>
CC(C)(C)N1CC/C(=C\C2=C(C(=O)O)N3C(=O)[C@@H](NC(=O)/C(=N\O)c4csc(N)n4)[C@H]3SC2)C1=O

>  <measured>
2 µg/mL

$$$$
>  <compound>
Nc1nc(/C(=N/O)C(=O)N[C@@H]2C(=O)N3C(C(=O)O)=C(/C=C4\CCN(C5CC5)C4=O)CS[C@H]23)cs1

>  <measured>
1 µg/mL

$$$$
>  <compound>
Nc1nc(/C(=N/O)C(=O)N[C@@H]2C(=O)N3C(C(=O)O)=C(/C=C4\CCN(CCF)C4=O)CS[C@H]23)cs1

>  <measured>
1 µg/mL

$$$$
>  <compound>
CON1CC/C(=C\C2=C(C(=O)O)N3C(=O)[C@@H](NC(=O)/C(=N\O)c4csc(N)n4)[C@H]3SC2)C1=O

>  <measured>
≤ 0.5 µg/mL

$$$$

May I ask what MIC50 has been recorded for CO/N=C(\C(=O)N[C@@H]1C(=O)N2C(C(=O)O)=C(CSc3nc(=O)c(=O)[nH]n3C)CS[C@H]12)c1csc(N)n1 [Ceftriaxone, reference compound] ?
> 32 µg/mL
